biological target: Phosphatidylinositol 4,5-bisphosphate 3-kinase catalytic subunit alpha isoform (Homo sapiens)
Sequence (P42336 whole entry, canonical isoform): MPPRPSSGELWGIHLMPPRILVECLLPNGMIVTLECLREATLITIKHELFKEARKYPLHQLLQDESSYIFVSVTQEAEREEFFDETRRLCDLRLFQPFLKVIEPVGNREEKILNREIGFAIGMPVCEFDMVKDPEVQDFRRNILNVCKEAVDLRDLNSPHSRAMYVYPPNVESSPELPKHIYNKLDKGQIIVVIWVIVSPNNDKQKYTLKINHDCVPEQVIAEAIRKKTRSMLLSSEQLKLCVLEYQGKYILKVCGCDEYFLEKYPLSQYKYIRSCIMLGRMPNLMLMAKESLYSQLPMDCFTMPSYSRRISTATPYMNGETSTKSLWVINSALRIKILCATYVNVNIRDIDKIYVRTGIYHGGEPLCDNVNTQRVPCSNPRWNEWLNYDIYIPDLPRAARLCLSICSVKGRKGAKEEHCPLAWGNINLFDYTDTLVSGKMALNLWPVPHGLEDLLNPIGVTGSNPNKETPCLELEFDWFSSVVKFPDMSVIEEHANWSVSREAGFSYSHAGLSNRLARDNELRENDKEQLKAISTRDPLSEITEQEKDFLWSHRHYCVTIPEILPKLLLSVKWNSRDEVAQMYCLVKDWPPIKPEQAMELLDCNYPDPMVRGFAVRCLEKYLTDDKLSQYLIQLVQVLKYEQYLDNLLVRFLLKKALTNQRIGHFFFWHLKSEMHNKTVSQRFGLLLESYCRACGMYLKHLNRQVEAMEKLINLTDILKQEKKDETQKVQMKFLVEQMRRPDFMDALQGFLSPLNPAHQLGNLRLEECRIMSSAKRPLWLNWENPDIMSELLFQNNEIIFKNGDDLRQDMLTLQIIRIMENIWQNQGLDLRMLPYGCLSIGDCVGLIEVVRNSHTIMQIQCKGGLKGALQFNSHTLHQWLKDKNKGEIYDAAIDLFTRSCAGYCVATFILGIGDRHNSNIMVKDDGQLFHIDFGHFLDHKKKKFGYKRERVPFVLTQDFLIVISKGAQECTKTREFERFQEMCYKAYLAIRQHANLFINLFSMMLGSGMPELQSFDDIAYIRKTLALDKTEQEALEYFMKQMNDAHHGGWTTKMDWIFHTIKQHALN
pIC50: −log10 of the molar value.
EXPERIMENTAL_ENDPOINT: pIC50

For orientation, consider the following solved cases.
> print(dat)
                              line.notation  reported.value
1  CC(C)(O)Cn1ncnc1-c1cc2c(s1)-c1ccc(C(N)=O)cc1OCC2            6.32
2  CC(=O)Nc1nc(-c2cc3c(s2)-c2ncccc2OCC3)c(-c2ccccc2Cl)[nH]1            7.44
3  Fc1ccc(-n2ncnc2-c2cc3c(s2)-c2ccccc2OCC3)c(F)c1            6.96
4  O=c1[nH]nc(-c2cc3c(s2)-c2ccccc2OCC3)n1-c1ccccc1Cl            7.70

[I] NC(=O)c1ccc2c(c1)OCCc1cc(-c3n[nH]c(=O)n3-c3ccccc3Cl)sc1-2
[II] NC(=O)c1ccc2c(c1)OCCc1cc(-c3ncnn3C3CCC3)sc1-2
[III] CC(C)Cn1ncnc1-c1cc2c(s1)-c1ccc(C(N)=O)cc1OCC2
Request: Rank ascending by pIC50. Please write the labels in the order that was asked for.
Result: II, III, I
